We begin with a simple list: items and their reported viability.
# ASSAY OVERVIEW: growth suppression of PTEN-deleted HCT116, pilot screen, cell-based, HCT116 clonal line, CellTiter-Glo (AID 824);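 also: 0% = 20 µM Hyamine control and 100% = vehicle cell control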
# TEST CONDITIONS: 60 h, at 10 µM, active compounds read low
Results filed as inconclusive are left out.
Report as a plain number; the unit % is understood.

A selection of reference data follows.
> print(dat)
                                   compound  quantity.kind  units.text  observed.measurement
1  O=C(c1ccccc1C(=O)N1CCN(c2ccccc2F)CC1)N1CCN(c2ccccc2F)CC1      viability           %                  68.2
2  O=S(=O)(c1ccc(Br)cc1)N1CCn2c(nc3ccccc32)C1      viability           %                  97.5
3           Cc1cc(Nc2cccc(F)c2)n2nc(C)nc2n1      viability           %                  94.4

Input line: Any idea what its viability is? The compound is CN1CCN(CCCNC(=O)c2ccc3c(c2)N(Cc2ccccc2)CCS3)CC1
Output line: 67.4

Input line: Query O=C(Nc1sc2c(c1C(=O)O)CCCCC2)c1ccco1 next
Output line: 78.5

Input line: Repeat with Cc1nnc(SCC(=O)NC(C)c2ccccc2)[nH]c1=O (stereo unspecified)
Output line: 99.3

* * *

# ASSAY OVERVIEW: inhibitors of the yeast RAM network, pilot screen, dse1pr::URA3 reporter, 5-FOA selection (AID 869);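 also: 0% = DMSO wells with no growth and 100% = 10 µM 1-NA-PP1 with full growth; RAM network block rescues cells from 5-FOA so hits raise OD615 growth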
# TEST CONDITIONS: S. cerevisiae dse1pr::URA3 5-FOA growth, OD615, 2 d; at 10 µM; active compounds read high; strain carries analog-sensitive mutant Cbk1 kinase
QUANTITY KIND: inhibition (%)
Could you give me the number in %? Just the number is fine.

Known results for molecules:
> print(dat)
                                   molecule  observed.measurement
1      COc1ccc(-n2ncc3c(N4CCCCC4)ncnc32)cc1                  1.78
2  CC1(C)CC(=O)C=C(NCCN2CCN(C(=O)Nc3ccc(Cl)c(Cl)c3)CC2)C1                -0.235
3  N#CC1=C2SCN(Cc3ccccc3)CN2C(=O)CC1c1cccs1 (configuration not stated)                 0.535
4        CC(C)(Oc1ccc(Cl)cc1)C(=O)Nc1cccnc1                 0.405
5  CCN1c2ccccc2NC2N=C(OC)C(c3ccccc3)C21 (configuration not stated)                  2.47

Input line: Query: inhibition; subject: CCOC(=O)NCCc1ccc(OC)cc1
Output line: 1.83

* * *

Listing of entries alongside the reported inhibition.
# ASSAY OVERVIEW: inhibitors of the yeast RAM network, pilot screen, dse1pr::URA3 reporter, 5-FOA selection (AID 869);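 also: 0% = DMSO wells with no growth and 100% = 10 µM 1-NA-PP1 with full growth; RAM network block rescues cells from 5-FOA so hits raise OD615 growth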
# TEST CONDITIONS: S. cerevisiae dse1pr::URA3 5-FOA growth, OD615, 2 d; at 10 µM; active compounds read high; strain carries analog-sensitive mutant Cbk1 kinase
Write the number in % without appending the unit.

Worked set:
> print(dat)
                                   molecule  observed.measurement
1  Cc1ccc(CNC(=O)CS(=O)Cc2nc(-c3cccs3)oc2C)cc1 (stereo not given)                  1.67
2  O=C(NCc1ccco1)C1CCCN(S(=O)(=O)c2cccc3cccnc23)C1 (stereo not given)                 0.595
3  CCOc1ccc(N(CC(=O)NCc2ccc(F)cc2)S(=O)(=O)c2c(C)noc2C)cc1                  2.25
4  COc1ccc(N2C(=O)C(CC(=O)O)S/C2=C\C(C)=O)cc1 (stereo not given)                  0.95

Proceeding to the next molecule to report its inhibition.
Input line: I am curious: what inhibition value has been reported for COc1c(Cl)cc(-c2noc(C)c2C(=O)NCc2ccc3c(c2)OCO3)cc1Cl ?
Output line: 1.19

* * *

# ASSAY OVERVIEW: viability gain of MRP-1-high H69AR cells under doxorubicin, pilot screen, MRP-1 activator project, CellTiter-Glo, duplicate (AID 807);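 also: compound pretreatment 18-22 h then 72 h combined with doxorubicin; 0% = doxorubicin alone and 100% = vehicle without doxorubicin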
# TEST CONDITIONS: H69AR viability with doxorubicin, CellTiter-Glo luminescence; at 10 µM; active compounds read high
QUANTITY KIND: viability increase (%)
Quick reminder: number only, in %, skip the unit.

Below, 3 compounds whose answers are already recorded.
> print(dat)
                                smiles.data       quantity.kind  units.text  observed.measurement
1  COc1cccc(-c2nc(CS(=O)(=O)CC(=O)N3CCN(C4CCCCC4)CC3)c(C)o2)c1  viability increase           %                 -2.59
2           CNC(=O)CN1C(=O)c2ccccc2S1(=O)=O  viability increase           %                  -0.6
3        CCc1c(C)nc2[nH]nc(-c3ccccc3)n2c1=O  viability increase           %                  0.32

Input line: Please report the recorded viability increase for CN(C)S(=O)(=O)c1ccc(C(=O)Nc2ccc(Cl)cc2)cc1 .
Output line: -1.63

Input line: Same question for Cc1ccsc1-c1nc(CSCC(=O)NCc2ccc3c(c2)OCO3)c(C)o1 please.
Output line: -0.27

Input line: Please answer likewise for COc1ccccc1C(=O)Nc1nnc(-c2ccc3c(c2)CCCC3)o1
Output line: -0.59

* * *

Listed next: entries and their corresponding growth inhibition.
# ASSAY OVERVIEW: OD615 S. cerevisiae growth inhibition, permissive medium, pilot counter-assay, permissive growth control for S. cerevisiae lifespan shortening project (AID 705)
# TEST CONDITIONS: OD615, 24 h, at 10 µM, active compounds read high
Report the figure in % without appending any unit label.

Solved entries:
> print(dat)
                                    compound  units.text  observed.measurement
 1  O=S(=O)(NCCc1cn2ccccc2n1)c1ccc2c(c1)OCCO2           %                 -2.27
 2  O=C(Cn1cnc2c(cnn2-c2ccc(Cl)cc2)c1=O)NC1CCCCC1           %                 -1.74
 3   C=CCNc1nc2c(c(=O)n(C)c(=O)n2C)n1CC(=C)C           %                 -1.17
 4  Cc1c(C#N)c2ccccc2n1CC(=O)NCCc1c[nH]c2ccccc12           %                 -12.2
 5  O=C(O)CCC(=O)N1CCc2cc(S(=O)(=O)Nc3ccc4c(c3)OCCO4)ccc21           %                 -4.35
 6  O=S(=O)(c1cc(Cl)ccc1Cl)N1CCN(Cc2ccc3c(c2)OCO3)CC1           %                 -18.5
 7  CCCc1nc2c(o1)CC(CC(C)SCC)CC2=O (configuration not stated)           %                 -7.34
 8    CSc1nnc(Cn2c(=O)sc3ccccc32)n1-c1ccccc1           %                 -2.55
 9  O=C(c1ccccn1)N(CC1CCCO1)C1(C(=O)NC2CCCCC2)CCCCC1 (configuration not stated)           %                 -4.99
10  COc1ccc(N2CCN(c3cc(=O)n(Cc4ccc(F)cc4)c(=O)[nH]3)CC2)cc1           %                 -4.88

Input line: # growth inhibition lookup, item CCCCn1c(CN2CCN(C(=O)c3ccco3)CC2)nc2c1c(=O)n(C)c(=O)n2C
Output line: -3.45

Input line: Check Cc1ccc(-n2nc(C)c3c(C)c(CCC(=O)NCc4ccco4)c(C)nc32)cc1 too.
Output line: -15

Input line: Can you handle O=C(CSc1cn(CCNC(=O)c2ccccc2)c2ccccc12)NCc1ccco1 next?
Output line: -4.76

Input line: Let us now turn to COc1ccc(C2C(C(=O)N3CCCCC3)c3ccccc3C(=O)N2C)cc1 (configuration not stated)
Output line: -2.93

Input line: Thanks! And CCOC(=O)N1CCN(C(=O)CSc2nc3c(cnn3-c3ccccc3)c(=O)[nH]2)CC1 ?
Output line: -2.34

Input line: How about this compound: Cc1ccc2nc(N3CCOCC3)c3nncn3c2c1
Output line: -6.37

Input line: Again, but for Cc1ccc(C(=O)NCc2ccc3c(c2)OCO3)cc1N1CCCC1=O
Output line: 5.69

Input line: Same question for CC1=C(C#N)C(c2cccnc2)C2=C(CC(C)(C)CC2=O)N1 (configuration not stated) please.
Output line: 1.49

Input line: Next entry: Cc1cc(C(=O)N2CCN(S(C)(=O)=O)CC2)sc1-c1ccccc1
Output line: -7.32

Input line: Please give the result for COc1ccc(C2NC(=O)NC(O)(C(F)(F)F)C2C(=O)c2ccc(C)cc2)cc1 (configuration not stated) too.
Output line: 6.2

Input line: What do you have for CC(c1ccccc1)C1C(C#N)=C(N)OC2=C1C(=O)CCC2 (configuration not stated) ?
Output line: -19

Input line: Try this compound too: CCOc1ccc(-c2nc(C#N)c(N3CCN(Cc4ccccc4)CC3)o2)cc1
Output line: -4.62

Origin of measurements: PubChem BioAssay
